study-system: T1, His-tagged SARS-CoV-2 RBD T332-K529 with Pro-527 omitted (SARS-CoV-2, wild-type RBD (P0DTC2 …))
T1 construct: also called isolated RBD
test-description: ITC
particulars: both partners purified
readout-label: dH (kcal/mol)
One number for each entry, in kcal/mol.

nanobody H11 V101Y R103S (VHH, also called double mutant A101Y, R103S) VHH: QVQLVESGGGLMQAGGSLRLSCAVSGRTFSTAAMGWFRQAPGKEREFVAAIRWSGGSAYYADSVKGRFTISRDKAKNTVYLQMNSLKYEDTAVYYCAQTRYTSSLLSDYATWPYDYWGQGTQVTVSS : -11
nanobody H11-A10 (VHH) VHH: QVQLVESGGGLMQAGGSLRLSCAVSGRTFSTAAMGWFRQAPGKEREFVAAIRWSGGSAYYADSVKGRFTISRDKAKNTVYLQMNSLKYEDTAVYYCAGFSATRSLLSDYATWPYDYWGQGTQVTVSS : -19.8
nanobody H11-H4 Y104S (VHH) VHH: QVQLVESGGGLMQAGGSLRLSCAVSGRTFSTAAMGWFRQAPGKEREFVAAIRWSGGSAYYADSVKGRFTISRDKAKNTVYLQMNSLKYEDTAVYYCAQTHYVSSLLSDYATWPYDYWGQGTQVTVSS : -11
nanobody H11-H6 (VHH) VHH: QVQLVESGGGLMQAGGSLRLSCAVSGRTFSTAAMGWFRQAPGKEREFVAAIRWSGGSAYYADSVKGRFTISRDKAKNTVYLQMNSLKYEDTAVYYCAGSKITRSLLSDYATWPYDYWGQGTQVTVSS : -19.1
nanobody H11-B5 (VHH) VHH: QVQLVESGGGLMQAGGSLRLSCAVSGRTFSTAAMGWFRQAPGKEREFVAAIRWSGGSAYYADSVKGRFTISRDKAKNTVYLQMNSLKYEDTAVYYCASYQATRSLLSDYATWPYDYWGQGTQVTVSS : -16.3

Query :: Query (binder): nanobody H11-H4 Q98R H100E (D4 hybrid) (VHH, also called H4-D4 hybrid; hybrid nanobody) VHH: QVQLVESGGGLMQAGGSLRLSCAVSGRTFSTAAMGWFRQAPGKEREFVAAIRWSGGSAYYADSVKGRFTISRDKAKNTVYLQMNSLKYEDTAVYYCARTEYVSYLLSDYATWPYDYWGQGTQVTVSS ; field requested: dH
Result :: -16.5

Origin of measurements: paper PMC9351521
